# target.or.test.system: human Bradykinin B1 receptor (Homo sapiens)
# Construct: host or cells: CHO-K1
# Sequence (P46663 1-353): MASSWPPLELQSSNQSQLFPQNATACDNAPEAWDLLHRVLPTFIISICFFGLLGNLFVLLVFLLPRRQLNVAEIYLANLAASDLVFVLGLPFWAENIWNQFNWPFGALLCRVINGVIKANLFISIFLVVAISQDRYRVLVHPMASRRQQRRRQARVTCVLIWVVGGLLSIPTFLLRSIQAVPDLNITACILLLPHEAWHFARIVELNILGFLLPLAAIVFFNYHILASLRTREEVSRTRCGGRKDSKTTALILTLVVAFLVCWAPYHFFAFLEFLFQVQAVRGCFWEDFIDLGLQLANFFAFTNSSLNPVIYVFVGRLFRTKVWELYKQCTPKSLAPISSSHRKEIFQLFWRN
# test.description: Calcium flux Assay (FLIPR) with recombinant CHO-K1 cells expressing human Bradykinin B1 receptor, in presence (hB1 IC50) or absence (hB1 free IC50) of 0.1% BSA
# Assay type: cell-based
# protocol.conditions: in presence of 0.1% BSA, read-out: hB1 IC50
metric: IC50 (nM)
Give the quantity in nM, number only.

A selection of reference data follows.
{"entry.smiles": "O=C(Nc1ccc(-c2ccc(Cl)nc2)c(-c2nnn[nH]2)c1)C1(c2cccc(Cl)c2)CC1", "units.text": "nM", "IC50": 115}
{"entry.smiles": "O=C(Nc1ccc(-c2cnc(C(F)(F)F)nc2)c(-c2nnn[nH]2)c1)C1(c2cccc(Cl)c2F)CC1", "units.text": "nM", "IC50": 993}

Then there is this compound:
Task: Provide only the value of recorded IC50 for COc1ccc(-c2cc(F)c(NC(=O)C3(c4ccc(F)c(Cl)c4)CC3)cc2-c2nnn[nH]2)cc1C
Result: 2100

###

The following compounds are shown together with reported pIC50 values.
# target.or.test.system: native human Bradykinin B1 receptor (Homo sapiens)
# Construct: which express native human Bradykinin B1 receptor after induction with human IL-10; Coriell Institute
# Sequence (P46663 1-353): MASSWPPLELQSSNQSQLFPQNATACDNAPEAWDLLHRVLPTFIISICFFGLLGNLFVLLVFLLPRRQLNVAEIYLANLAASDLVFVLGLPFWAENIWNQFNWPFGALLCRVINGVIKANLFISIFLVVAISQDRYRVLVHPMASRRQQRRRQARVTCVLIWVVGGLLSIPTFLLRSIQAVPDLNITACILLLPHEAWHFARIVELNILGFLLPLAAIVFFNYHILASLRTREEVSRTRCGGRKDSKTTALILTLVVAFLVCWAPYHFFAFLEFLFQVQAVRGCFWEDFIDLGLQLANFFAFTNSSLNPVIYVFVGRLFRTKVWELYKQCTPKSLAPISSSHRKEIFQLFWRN
# test.description: Calcium flux Assay (FLIPR) with human fibroblasts expressing Bradykinin B1 receptor (hB1 IMR-90)
# protocol.conditions: IMR-90 human fibroblasts expressing native Bradykinin B1 receptor
By convention, pIC50 is the negative base-10 log of a molar concentration.

{"entry.smiles": "O=C(Nc1ccc(-c2ccc(C(F)F)nc2)c(-c2nnn[nH]2)c1)C1(c2ccc(C(F)(F)F)cc2F)CC1", "target.or.test.system": "native human Bradykinin B1 receptor (Homo sapiens)", "pIC50": 7.97}
{"entry.smiles": "CCOc1ccc(-c2ccc(NC(=O)C3(c4ccc(C(F)(F)F)cc4)CC3)cc2-c2nnn[nH]2)cn1", "target.or.test.system": "native human Bradykinin B1 receptor (Homo sapiens)", "pIC50": 7.97}
{"entry.smiles": "CCOc1ccc(-c2c(Cl)cc(NC(=O)C3(c4cccc(Cl)c4)CC3)cc2-c2nnn[nH]2)cn1", "target.or.test.system": "native human Bradykinin B1 receptor (Homo sapiens)", "pIC50": 7.43}

Task: Provide only the value of recorded pIC50 for O=C(Nc1cc(F)c(-c2ccnc(C(F)(F)F)c2)c(-c2nnn[nH]2)c1)C1(c2cccc(Cl)c2)CC1
Result: 6.24

Task: Provide only the value of recorded pIC50 for CCOc1ccc(-c2ccc(NC(=O)C3(c4ccc(Cl)c(F)c4)CC3)cc2-c2nnn[nH]2)cn1
Result: 8.22

Task: Provide only the value of recorded pIC50 for O=C(Nc1cc(-c2nnn[nH]2)c(-c2ccc(C(F)(F)F)nc2)cc1O)C1(c2cc(Cl)ccc2F)CC1
Result: 7.25

Task: Provide only the value of recorded pIC50 for Cc1ccc(-c2c(F)cc(NC(=O)C3(c4ccc(C(F)(F)F)cc4F)CC3)cc2-c2nnn[nH]2)cn1
Result: 8.62

Task: Provide only the value of recorded pIC50 for O=C(Nc1ccc(-c2ccnc(C(F)F)c2)c(-c2nnn[nH]2)c1)C1(c2ccc(C(F)(F)F)cc2F)CC1
Result: 7.33

Task: Provide only the value of recorded pIC50 for CCOc1ncc(-c2ccc(NC(=O)C3(c4cccc(Cl)c4)CC3)cc2-c2nnn[nH]2)cn1
Result: 7.65

Task: Provide only the value of recorded pIC50 for CCOc1ccc(-c2ccc(NC(=O)C3(C(F)(F)F)CC3)cc2-c2nnn[nH]2)cn1
Result: 6.79

Task: Provide only the value of recorded pIC50 for CCc1ccc(-c2ccc(NC(=O)C3(c4cccc(Cl)c4)CC3)cc2-c2nnn[nH]2)cn1
Result: 8.22

Task: Provide only the value of recorded pIC50 for CCOc1ccc(-c2ccc(NC(=O)C3(c4cc(F)cc(Cl)c4)CC3)cc2-c2nnn[nH]2)cn1
Result: 7.66

Task: Provide only the value of recorded pIC50 for CCOc1ccc(-c2ccc(NC(=O)C3(c4cccc(Cl)c4F)CC3)cc2-c2nnn[nH]2)cn1
Result: 8.10

Task: Provide only the value of recorded pIC50 for O=C(Nc1ccc(-c2ccnc(C(F)(F)F)c2)c(-c2nnn[nH]2)c1)C1(c2ccc(C(F)(F)F)cc2F)CC1
Result: 7.03

###

# target.or.test.system: human Bradykinin B1 receptor (Homo sapiens)
# Construct: host or cells: CHO-K1
# test.description: Calcium flux Assay (FLIPR) with recombinant CHO-K1 cells expressing human Bradykinin B1 receptor, in presence (hB1 IC50) or absence (hB1 free IC50) of 0.1% BSA
# Assay type: cell-based
# protocol.conditions: in presence of 0.1% BSA, read-out: hB1 IC50
The following compounds are shown together with reported pIC50 values.
By convention, pIC50 is the negative base-10 log of a molar concentration.

A selection of reference data follows.
{"compound": "O=C(Nc1ccc(-c2cnc3ccoc3c2)c(-c2nnn[nH]2)c1)C1(c2cccc(Cl)c2)CC1 [Example 321]", "pIC50": 6.82}
{"compound": "COc1ccc(-c2ccc(NC(=O)C3(C(F)(F)F)CC3)cc2-c2nnn[nH]2)cc1OC [Example 34]", "pIC50": 6.22}
{"compound": "O=C(Nc1ccc(-c2cncc(F)c2)c(-c2nnn[nH]2)c1)C1(c2cccc(Cl)c2)CC1 [Example 335]", "pIC50": 6.29}

Task: Provide only the value of recorded pIC50 for COc1cncc(-c2ccc(NC(=O)C3(c4ccc(C(F)(F)F)cc4)CC3)cc2-c2nnn[nH]2)c1 [Example 154]
Result: 7.57

###

# target.or.test.system: human Bradykinin B1 receptor (Homo sapiens)
# Construct: host or cells: CHO-K1
# test.description: Calcium flux Assay (FLIPR) with recombinant CHO-K1 cells expressing human Bradykinin B1 receptor, in presence (hB1 IC50) or absence (hB1 free IC50) of 0.1% BSA
# Type: cell-based
# protocol.conditions: in presence of 0.1% BSA, read-out: hB1 IC50
The following compounds are shown together with reported IC50 values.
Give the quantity in µM, number only.

{"compound": "CCOc1ccc(-c2ccc(NC(=O)C3(c4cc(OC)ccc4F)CC3)cc2-c2nnn[nH]2)cn1 [Example 104]", "metric": "IC50", "readout.number": 0.0464}
{"compound": "CCOc1ccc(-c2ccc(NC(=O)C3(CC(C)C)CC3)cc2-c2nnn[nH]2)cn1 [Example 89]", "metric": "IC50", "readout.number": 0.615}

Task: Provide only the value of recorded IC50 for COc1ccc(-c2ccc(NC(=O)C3(c4cccc(Cl)n4)CC3)cc2-c2nnn[nH]2)cc1OC [Example 50]
Result: 0.31

Task: Provide only the value of recorded IC50 for COCc1ccc(-c2ccc(NC(=O)C3(c4ccc(F)cc4F)CC3)cc2-c2nnn[nH]2)cn1 [Example 127]
Result: 0.0909

Task: Provide only the value of recorded IC50 for COc1ccc(-c2ccc(NC(=O)C3(c4ccccc4)CC3)cc2-c2nnn[nH]2)cc1OC [Example 35]
Result: 0.213

Task: Provide only the value of recorded IC50 for CCOc1ccc(-c2ccc(NC(=O)C3(c4ccc(F)cc4F)CC3)cc2-c2nnn[nH]2)cc1OC [Example 122]
Result: 0.0565

Task: Provide only the value of recorded IC50 for O=C(Nc1ccc(-c2ccc(OC(F)(F)F)cc2)c(-c2nnn[nH]2)c1)C1(c2cccc(Cl)c2)CC1 [Example 317]
Result: 0.0529

Task: Provide only the value of recorded IC50 for COCc1ccc(-c2ccc(NC(=O)C3(c4cccc(Cl)c4)CC3)cc2-c2nnn[nH]2)cn1 [Example 125]
Result: 0.0138

Task: Provide only the value of recorded IC50 for COc1ccc(-c2ccc(NC(=O)C3(c4cc(C(F)(F)F)ccc4F)CC3)cc2-c2nnn[nH]2)cc1OC [Example 27]
Result: 0.0515
